% Inhibition 24 hr (Jurkat chemotaxis) by entry:
study_system: human CXCR4 (human, UniProt P61073 1-352); further: test concentration or dose not given here
Sequence (P61073 whole entry): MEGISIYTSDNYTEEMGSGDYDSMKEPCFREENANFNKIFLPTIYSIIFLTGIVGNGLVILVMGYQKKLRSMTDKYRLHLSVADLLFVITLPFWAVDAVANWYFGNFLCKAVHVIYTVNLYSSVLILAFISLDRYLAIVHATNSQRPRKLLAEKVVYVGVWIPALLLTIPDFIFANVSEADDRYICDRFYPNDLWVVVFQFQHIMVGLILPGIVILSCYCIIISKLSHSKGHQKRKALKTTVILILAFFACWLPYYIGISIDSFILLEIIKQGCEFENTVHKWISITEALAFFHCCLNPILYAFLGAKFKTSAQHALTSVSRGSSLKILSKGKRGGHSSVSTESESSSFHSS
method_summary: cell-based or functional assay
Give your result in % as a bare value.

5C9 (antibody, V domains shown, Fully human monoclonal antibody from XenoMouse hybridoma (lambda light chain)) VH: QVQLVESGGGVVQPGRSLRLSCAASGFTFSSYGLHWVRQSPGKGLEWVAVISYDGSKKYYADSVKGRFSISRDNSKNTLYLQMNSLRAEDTAVYYCARDRPSRYSSCMDVWGQGTTVTVSS VL: QSALTQPASVSGSPGQSITISCTGTSSDVGSNNFVSWYQQHPGKAPKLMIYEVSKRPSGVSNRFSGSKSGNTASLTISGLQAEDEADYYCCSYAGSNTLVFGGGTKLTVL; 44

Report % Inhibition 24 hr (Jurkat chemotaxis) for 6C7 (antibody, V domains shown, Fully human monoclonal antibody from XenoMouse hybridoma; also called antibody 6C7; mAb 6C7) VH: QVQLVESGGGVVQPGRSLRLSCAASGFTFSNYVMHWVRQAPGKGLEWVAVIWYDGSNKYYADSVKGRFTISRDNSKNTLSLQMNSLRAEDTAVYYCERGEGYYGSGSRYRGYYYGMDVWGQGTTVTVSS VL: DIQMTQSPSSLSASVGDRVTITCRASQGIRTDLGWYQQKPGKAPKRLIYAASSLQSGVPSRFSGSGSGTEFTLTISSLQPEDFATYYCLQHNSYPRTFGQGTKVEIK please.
95

Request the reported % Inhibition 24 hr (Jurkat chemotaxis) associated with 2A4 (antibody, V domains shown, Fully human monoclonal antibody from XenoMouse hybridoma; also called mAb 2A4; Mab2A4) VH: QVQLVESGGGVVQPGRSLRLSCAASGFTFSSYGMHWVRQAPGKGLEWVAVISYDGSNKYYADSVKGRFTISRDNSKNTLYLQMNSLRAEDTAVYYCTRGGLAARRNYYYSYGTDVWGQGTTVTVSS VL: DIQMTQSPSSLSASVGDRVTITCRASQDIRNDLGWYQQKPGKAPTRLIYAASSLQSGVPSRFSGSGSGTQFTLTISSLQPEDFATYYCLQHNSYPLTFGGGTKVQIK
76

GET /values?readout=% Inhibition 24 hr (Jurkat chemotaxis)&item= 4C1 (antibody, V domains shown, Fully human monoclonal antibody from XenoMouse hybridoma (strains XMG2 IgG2 or XMG4 IgG4, kappa/lambda); Tested as hybridoma supernatant or purified antibody; also called mAb 4C1; Mab4C1) VH: QVQLVESGGGVVQPGRSLRLSCAASGFTFSSYGMHWVRQAPGKGLEWVAVISYDGSNKYYADSVKGRFTISRDNSKNTLYLQMNSLRAEDTAVYYCTRGGLAARRNYYYSYGMDVWGQGTTVTVSS VL: DIQMTQSPSSLSASVGDRVTITCRASQDIRNDLGWYQQKPGKAPKRLIYAASSLQSGVPSRFSGSGSGTQFTLTISSLQPEDFATYYCLQHNSYPLTFGGGTKVQIK
-27

Any idea what % Inhibition 24 hr (Jurkat chemotaxis) was measured for 7C8 (antibody, V domains shown, Fully human monoclonal antibody from XenoMouse hybridoma) VH: QVQLVESGGGVVQPGRSLRLSCAASGFTFSSYGMHWVRQAPGKGLEWVAVIWYDGTYKYYADSVRGRFTISRDNSKNTLYLQMNSLRAEDTAVYYCARGPLLRYFDWLSDYWGQGTLVTVSS VL: DIQMTQSPSSLSASVGDRVTITCRASQGIRNDLGWYQQKPGKAPKRLIYAATSLQSGVPSRFSGSGSGTEFTLTISSLQPEDFATYYCLQHNNYPRTFGGGTKVEIK ?
-34
